- assay: qHTS Assay for Rab9 Promoter Activators; further: nearly all actives have a fitted effect of over 60% in size
- test_context: Huh7 Rab9 promoter-luciferase reporter, luminescence, 24 h; series mostly up to 9.22 µM
Hit rate of the full screen: of about 320,000 compounds, about 9,100 (2.8%) were called active. About 3% were inconclusive and are not listed. The call rests on the fitted dose curve; in most records, active means well fitted activation curve with a large enough effect; inconclusive means small, poorly fitted or top-dose-only effect; inactive means no such curve, though single readings can be large or run the other way. Shown is part of a subset that was picked to be rich in actives.
Thanks in advance; please answer with one of these: active, inactive

Examples from the recorded data:
O=C(COC(=O)C1CC2CCCC(C1)C2=O)NC(=O)c1ccccc1 (stereo not drawn) | inactive
COc1ccc(CNC(=O)c2ccc(NS(=O)(=O)c3ccc4[nH]c(=O)[nH]c4c3)cc2)cc1OC | inactive
CC(C)n1ncc2c(C(=O)Nc3ccc(CC#N)cc3)cc(C3CC3)nc21 | inactive

Q: What classification did `COc1ccc([C@H]2CC(=O)C=C(/C=C/c3ccc(Cl)cc3)C2)cc1` end up with in this test?
A: inactive

Q: What classification did `CCOc1cc(CNCCN(C)C)c(Cl)cc1OCC(=O)NCCc1ccccc1` end up with in this test?
A: inactive

Q: What classification did `O=C(NCCc1ccc(F)cc1)c1ccc2nccnc2c1` end up with in this test?
A: active

Q: What classification did `Cn1c(SCC(=O)Nc2nccs2)nnc1-c1cccnc1` end up with in this test?
A: inactive

Q: What classification did `O=C(NC1CCCCC1)c1ccc(-c2ccc(Cl)cc2)o1` end up with in this test?
A: active

Q: What classification did `CC(=O)c1cc(C#N)c(SCC(=O)Nc2nccs2)nc1C` end up with in this test?
A: active

Q: What classification did `CC(=O)c1cc(C#N)c(SCC(=O)C(C)(C)C)nc1C` end up with in this test?
A: active

Q: What classification did `COc1cccc(C(=O)N/N=C(\C)c2cccc(NC(=O)c3ccc(F)cc3)c2)c1OC` end up with in this test?
A: inactive

Q: What classification did OC(COc1ccc(F)cc1Cl)CN1CCc2ccccc2C1 (stereo not drawn) end up with in this test?
A: inactive

Q: What classification did `COCCCNC(=O)COc1cc(C)c(Cl)c(C)c1` end up with in this test?
A: inactive

* * *

- assay: qHTS Assay for Rab9 Promoter Activators; further: nearly all actives have a fitted effect of over 60% in size
- test_context: Huh7 Rab9 promoter-luciferase reporter, luminescence, 24 h; series mostly up to 9.22 µM
The campaign covered roughly 320,000 compounds. About 9,100 (2.8%) were called active. Another 3% or so got no clear call; they are omitted. Calls follow the shape of the dose curve; as a rule, active = well fitted activation curve with a large enough effect; inconclusive = small, poorly fitted or top-dose-only effect; inactive = no such curve, though single readings can be large or run the other way. The list comes from a sample in which actives are over-represented; it also holds close analogues and randomly drawn compounds.
Thanks in advance; please answer with one of these: TRUE for active, FALSE for inactive

Examples from the recorded data:
COc1ccc(C(=O)NC2CCN(C(=S)Nc3ccccc3)CC2)cc1 | FALSE
CN1CCN(S(=O)(=O)c2cccc(C(=O)Nc3sccc3C#N)c2)CC1 | FALSE
CCOc1ccc(NC(=O)c2cccc3c2C(=O)N(CC2CCCO2)C3)cc1 (centres undefined) | FALSE
COc1cccc(NC(=O)CN(C)CC(=O)c2c(N)n(Cc3ccccc3)c(=O)n(C)c2=O)c1 | FALSE
CC(C)CN(C(=O)CSc1nncn1C)C1CCS(=O)(=O)C1 (centres undefined) | FALSE

Q: What classification did `Nc1[nH][nH]c(=O)c1N=Nc1ccc2c(c1)OCO2` end up with in this test?
A: TRUE

Q: What classification did Cc1cc(NC(=O)CN2C(=O)NC(CCc3ccccc3)C2=O)no1 (centres undefined) end up with in this test?
A: FALSE

Q: What classification did `O=C(N/N=C/c1ccccn1)c1cccnc1` end up with in this test?
A: FALSE

Q: What classification did `COc1ccc(C(=O)NCCSc2ccccc2C)cc1` end up with in this test?
A: TRUE

* * *

- assay: qHTS Assay for Rab9 Promoter Activators; further: nearly all actives have a fitted effect of over 60% in size
- test_context: Huh7 Rab9 promoter-luciferase reporter, luminescence, 24 h; series mostly up to 9.22 µM
- Excerpt: NIH Chemical Genomics Center [NCGC] NIH Molecular Libraries Probe Production centers Network [MLPCN] […] The Rab9 promoter is cloned in front of the luciferase reporter gene, therefore […] promoter activation results in luciferase expression. […] 7.Read using the luminescence protocol on the ViewLux plate reader (Perkin Elmer).
Out of some 320,000 compounds screened, about 9,100 (2.8%) were called active. Not shown: some 3% with an inconclusive outcome. Calls follow the shape of the dose curve; as a rule, active = well fitted activation curve with a large enough effect; inconclusive = small, poorly fitted or top-dose-only effect; inactive = no such curve, though single readings can be large or run the other way. Many of the other results were omitted from the sample, so actives are more common in it than they were.
Thanks in advance; please answer with one of these: true (1) for active, false (0) for inactive

OC(c1nc2ccccc2[nH]1)C(O)C(O)C(O)c1nc2ccccc2[nH]1 (stereo not given) | false (0)
COc1ccc(-c2[nH]nc(-c3ccccc3)c2-c2nc3ccccc3[nH]2)cc1 | false (0)
CCCCCCCCC(=O)NCCOc1ccccc1 | false (0)
Cc1ccc(-c2nc3ccccc3[nH]2)cc1N | true (1)

Please turn your attention to the following entry.
Q: What classification did `O=C(CCNC(=O)c1ccc(Br)cc1)NCCCc1ccccc1` end up with in this test?
A: false (0)

* * *

- assay: qHTS Assay for Rab9 Promoter Activators; further: nearly all actives have a fitted effect of over 60% in size
- test_context: Huh7 Rab9 promoter-luciferase reporter, luminescence, 24 h; series mostly up to 9.22 µM
Out of some 320,000 compounds screened, about 9,100 (2.8%) were called active. Another 3% or so got no clear call; they are omitted. The call rests on the fitted dose curve; in most records, active means well fitted activation curve with a large enough effect; inconclusive means small, poorly fitted or top-dose-only effect; inactive means no such curve, though single readings can be large or run the other way. The list comes from a sample in which actives are over-represented; it also holds close analogues and randomly drawn compounds.
Thanks in advance; please answer with one of these: active, inactive

Examples from the recorded data:
CC(C)(C)n1ncc2c(=O)n(Cc3c(Cl)cccc3Br)cnc21 | inactive
O=[N+]([O-])c1ccc2oc(-c3cccc(O)c3)nc2c1 | active
CCOc1ccc(NC(=O)CN(C)C(=O)CSc2ccccc2)cc1OCC | inactive

Q: What classification did `CC(C)Cc1nnc(NC(=O)CCNC(=O)c2ccccc2Cl)s1` end up with in this test?
A: inactive

Q: What classification did `COc1ccc([N+](=O)[O-])cc1-c1nc2ccccc2nc1-c1ccccc1` end up with in this test?
A: inactive

Q: What classification did `COc1ccc(C(=O)NCc2nnc(SCC(=O)Nc3cccc(OC)c3)o2)cc1` end up with in this test?
A: inactive

Q: What classification did `Cc1c(CNCCc2ccccc2)c(C(=O)O)c(C)n1-c1ccccc1` end up with in this test?
A: inactive

* * *

- assay: qHTS Assay for Rab9 Promoter Activators; further: nearly all actives have a fitted effect of over 60% in size
- test_context: Huh7 Rab9 promoter-luciferase reporter, luminescence, 24 h; series mostly up to 9.22 µM
The campaign covered roughly 320,000 compounds. About 9,100 (2.8%) were called active. Not shown: some 3% with an inconclusive outcome. Calls follow the shape of the dose curve; as a rule, active = well fitted activation curve with a large enough effect; inconclusive = small, poorly fitted or top-dose-only effect; inactive = no such curve, though single readings can be large or run the other way. The list comes from a sample in which actives are over-represented; it also holds close analogues and randomly drawn compounds.
Thanks in advance; please answer with one of these: active, inactive

Cc1ccc(C(=O)Nc2ncccc2C)cc1S(=O)(=O)N1CCOCC1 | inactive
CC[C@H](C)C(=O)N[C@H]1CCCN1C(=O)/C=C/c1ccccc1 | inactive
Cc1ccc(S(=O)(=O)NCCNC(C)c2ccc(Br)cc2)cc1 (centres undefined) | inactive

Q: What classification did `CCCCN1C(=O)C(=O)N(CC(=O)Nc2cccc(C(C)=O)c2)C1=O` end up with in this test?
A: inactive

Q: What classification did CC(C)C(NC(=O)c1c(F)cccc1F)C(=O)NCc1ccncc1 (centres undefined) end up with in this test?
A: inactive

Q: What classification did `O=C(CNC(=O)c1ccc2ccccc2c1)Nc1ncccc1O` end up with in this test?
A: inactive

Q: What classification did `C/C(N)=C(/C#N)C(=O)COC(=O)CNS(=O)(=O)c1ccc(C)cc1` end up with in this test?
A: inactive

Q: What classification did `CC(C)(CSc1nncn1/N=C/c1ccco1)NS(=O)(=O)c1ccc(Cl)cc1` end up with in this test?
A: inactive

Q: What classification did `CC(C)CC(=O)N/C(N)=N/c1nc2ccccc2s1` end up with in this test?
A: active

Q: What classification did `CCCCC/C=C/C1=CC(=O)C[C@H](c2ccc(Cl)cc2)C1` end up with in this test?
A: inactive

* * *

- assay: qHTS Assay for Rab9 Promoter Activators; further: nearly all actives have a fitted effect of over 60% in size
- test_context: Huh7 Rab9 promoter-luciferase reporter, luminescence, 24 h; series mostly up to 9.22 µM
The campaign covered roughly 320,000 compounds. About 9,100 (2.8%) were called active. Not shown: some 3% with an inconclusive outcome. Calls come from the whole dose curve; as a rule, active = well fitted activation curve with a large enough effect; inconclusive = small, poorly fitted or top-dose-only effect; inactive = no such curve, though single readings can be large or run the other way. This excerpt belongs to a sample that is enriched for actives.
Thanks in advance; please answer with one of these: active, inactive

Cc1ccc(-n2cc3ccc([N+](=O)[O-])cc3n2)cc1 | active

Please turn your attention to the following entry.
Q: What classification did `O=C(/C=C/c1ccccc1)Nc1nnc(SCC(=O)c2ccc3ccccc3c2)s1` end up with in this test?
A: inactive

* * *

- assay: qHTS Assay for Rab9 Promoter Activators; further: nearly all actives have a fitted effect of over 60% in size
- test_context: Huh7 Rab9 promoter-luciferase reporter, luminescence, 24 h; series mostly up to 9.22 µM
The whole screen tested about 320,000 compounds, of which about 9,100 (2.8%) were called active. About 3% were inconclusive and are not listed. Calls follow the shape of the dose curve; as a rule, active = well fitted activation curve with a large enough effect; inconclusive = small, poorly fitted or top-dose-only effect; inactive = no such curve, though single readings can be large or run the other way. The sample as a whole holds a higher share of actives than the screen did.
Thanks in advance; please answer with one of these: active, inactive

Examples from the recorded data:
OC(c1nnc(-c2ccccc2)o1)c1cccs1 (centres undefined) | active
Cc1nonc1NC(=O)CSc1nc2ccccc2cc1C#N | inactive
O=C(Nc1nnc(-c2ccccc2)o1)c1cc(-c2cccs2)nc2ccccc12 | inactive
COc1cc(/C=N/O)ccc1OCc1ccc([N+](=O)[O-])cc1 | active
Cc1ccc(C(=O)Cn2cccn2)cc1 | inactive
CCOC(=O)CSc1nccc(N(C)C)c1C#N | inactive
COc1cc(/C=N\Nc2ccc([N+](=O)[O-])cn2)ccc1OCC(=O)O | inactive
COc1cc(NC(=O)c2cccs2)ccc1NC(=O)c1ccccc1Cl | inactive

Please turn your attention to the following entry.
Q: What classification did `Cc1ccc(S(=O)(=O)CC(=O)Nc2nnc(C)s2)cc1` end up with in this test?
A: inactive
